assay-explanation: gradient 5% acetonitrile 3 min, to 50% in 2 min, to 85% in 15 min, held 3 min, 100 µL/min
setup-conditions: column: Zorbax Extend-C18 2.1 x 50 mm; eluents: water / acetonitrile, 0.1% formic acid
value-kind: RP-LC retention time (s)

>>> readout_value("CCC1Oc2ccc(S(=O)(=O)N3CCC(C(=O)N(C)Cc4ccccc4)CC3)cc2NC1=O (centres undefined)")
872
>>> readout_value("Cc1ncc(-c2nc(-c3ccccc3)cs2)c(=O)n1CC(=O)N1CCCC1")
827
>>> readout_value("COc1ccc(S(=O)(=O)C(CNC(=O)c2cccc([N+](=O)[O-])c2C)c2ccco2)cc1 (centres undefined)")
664
>>> readout_value("CCCC(NC(=O)Cc1ccc(OC)cc1Cl)C(=O)Nc1nc2ccccc2[nH]1 (centres undefined)")
730
>>> readout_value("Cc1ccc(NC(=O)C2(CCO)CCN(c3ncccn3)C2)cc1 (centres undefined)")
630
>>> readout_value("CCCCn1cnc2c(nnn2C)c1=O")
621
>>> readout_value("COc1ccc(NC(=O)Cn2c(C)cc(-c3nnc(C4CCC4)o3)c2C)cc1OC")
796
>>> readout_value("COc1ccc(C)cc1NC(=O)C1CCCN(c2ncnc3c2nc2n3CCCCC2)C1 (centres undefined)")
864
>>> readout_value("CCNC(=O)Nc1ccc(OCC(=O)NCc2cccc(OC)c2)nc1")
669
